// data source = patent EP0346132A1

Assay: Anti-HIV assay, toxicity to uninfected (normal) cells, MT-2C
Assay type: cell-based
Conditions: human, mt-2c cells
Measured Attribute: CC50

Name the reported CC50 value associated with the compound Nc1nc(N)c2ncn([C@H]3C=C[C@@H](CO)C3)c2n1 (racemic) [Compound 15a]
> 125 µg/mL

---

Experiment: Anti-HIV assay, toxicity to uninfected (normal) cells, ATH-8
Type: cell-based
Conditions: human, ath-8 cells; first ID₅₀ column (c2); Cell Line ATH-8
Measured Attribute: CC50 (µg/mL)
Provide the reading as a plain figure in µg/mL.

Name the reported CC50 value associated with the molecule Nc1nc2c(ncn2[C@H]2C=C[C@@H](CO)C2)c(=O)[nH]1 (racemic) [Compound 14a]
55.3

---

Experiment: Anti-HIV assay, toxicity to uninfected (normal) cells, MT-2C
Type: cell-based
Settings: human, mt-2c cells; first ID₅₀ column (c2); Cell Line MT-2C; read-out: ID₅₀
Measured Attribute: CC50 (µg/mL)
Provide the reading as a plain figure in µg/mL.

Name the reported CC50 value associated with the compound Nc1nc(O)c2ncn([C@H]3C=C[C@@H](CO)C3)c2n1 [(-)14a]
135

---

Assay: Anti-HIV assay, toxicity to uninfected (normal) cells, CEM-C
Assay type: cell-based
Conditions: human, first ID₅₀ column (c2), Cell Line CEM-C
Measured Attribute: CC50

Name the reported CC50 value associated with the compound Nc1nc(O)c2ncn([C@H]3C=C[C@@H](CO)C3)c2n1 [(-)14a]
189 µg/mL

---

Catalogue of IC50 values
System: P-388 Leukemia Cells
Assay: P-388 mouse leukemia cell culture cytotoxicity assay
Assay type: cell-based
Settings: P388, inhibitory (cytotoxicity) concentration for P-388 leukemia cells in culture, read-out: ED₅₀
Excerpt: The ED₅₀ cytotoxicity concentrations determined for analogs 7a, 9a, 10a, 16a, and 17a in the P-388 mouse leukemia cell culture assay are given in Table II.
Please report the result as a number followed by the unit.

# count of solved cases: 3
- Compound: "Nc1nc(Cl)c2nnn([C@H]3C=C[C@@H](CO)C3)c2n1 (racemic) [Compound 16a]"
  Test Target: "P-388 Leukemia Cells"
  IC50: "1 µg/mL"
- Compound: "OC[C@@H]1C=C[C@H](n2cnc3c(S)ncnc32)C1 (racemic) [Compound 10a]"
  Test Target: "P-388 Leukemia Cells"
  IC50: "3 µg/mL"
- Compound: "Nc1nc2c(nnn2[C@H]2C=C[C@@H](CO)C2)c(=O)[nH]1 (racemic) [Compound 17a]"
  Test Target: "P-388 Leukemia Cells"
  IC50: "4.5 µg/mL"

Name the reported IC50 value associated with the compound Nc1ncnc2c1ncn2[C@H]1C=C[C@@H](CO)C1 (racemic) [Compound 9a]
40 µg/mL

Name the reported IC50 value associated with the compound OC[C@@H]1C=C[C@H](n2cnc3c(Cl)ncnc32)C1 (racemic) [Compound 7a]
12 µg/mL

---

Test: Anti-HIV assay, toxicity to uninfected (normal) cells, MT-2
Assay type: cell-based
Conditions: human, mt-2 cells, ID₅₀
Catalogue of CC50 values
Please report the result as a number followed by the unit.

# count of solved cases: 3
- Compound: "OC[C@@H]1C=C[C@H](n2cnc3c(S)ncnc32)C1 (racemic) [Compound 10a]"
  Result: "7.33 µg/mL"
- Compound: "Nc1nc(Cl)c2ncn([C@H]3C=C[C@@H](CO)C3)c2n1 (racemic) [Compound 13a]"
  Result: "6.97 µg/mL"
- Compound: "Nc1ncnc2c1ncn2[C@H]1C=C[C@@H](CO)C1 (racemic) [Compound 9a]"
  Result: "50 µg/mL"

Name the reported CC50 value associated with the compound OC[C@@H]1C=C[C@H](n2cnc3c(Cl)ncnc32)C1 (racemic) [Compound 7a]
58.5 µg/mL
